Each entry below carries its reported pIC50.
Target: T1, human Bcl-w ΔC29 (C29S A128E) (human, UniProt Q92843 1-164)
T1 construct: range 1-164; residues 1-209), which are those of Bcl-xL; also called hBcl-w
T1 sequence: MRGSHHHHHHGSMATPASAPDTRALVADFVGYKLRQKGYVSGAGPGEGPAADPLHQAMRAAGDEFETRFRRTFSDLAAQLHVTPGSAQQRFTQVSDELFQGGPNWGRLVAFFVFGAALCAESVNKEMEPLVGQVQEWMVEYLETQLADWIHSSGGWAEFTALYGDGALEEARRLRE
Experiment: Biacore solution competition against immobilised mouse wtBimBH3
pIC50 field: float, defined as -log10 of concentration (mol/L).

Answered examples (3):
NLWAAQRYGRELRRMSDEFVDSFKKG (also called BadBH3) [Bad (103-128) BH3 peptide, human]
7.52
HRAEVQIARKLQCIADQFHRLHTQ (also called BmfBH3) [m Bmf (128-151) BH3 peptide]
8.01
MEGSDALALRLACIGDEMDVSLRAP (also called BikBH3; hBik) [Bik (51-75) BH3 peptide, human]
7.92

Read the next record carefully.
**Q:** Please list pIC50 recorded for the binder DIIRNIARHLAQVGDSMDRSIPPG (also called BidBH3) [Bid (81-104) BH3 peptide, human]
**A:** 7.40

Taken from patent US20080027145A1.
